Entries and their growth values follow.
- System: HCT-15 colon
- protocol notes: NCI-60 one-dose screen, 48 h (100 = growth as untreated, 0 = no growth, -100 = all killed)
- test context: 10 µM unless noted
Compounds without any hit were thinned out: in the full panel of roughly 83,000, 20% have a hit.
Output spec: scalar in %, unitless text.

Recorded growth, per entry:
O=C(NCCOCCOCCOCCNC(=O)c1cc2c(o1)C(=O)c1ccccc1C2=O)NC12CC3CC(CC(C3)C1)C2
-74.7
Cc1ccc(/C(=N\N=C(N)N)c2ccccc2)cc1
-4.22
Cc1c(C(=O)O[C@H]2[C@@H]3[C@H](C)CC[C@H]3[C@]3(C)O[C@@]2(C2CCCCC2)C[C@H]3OC(=O)CO)ccc2ccccc12
14.2
CC(=O)Nc1nccs1
98
COc1ccc(-c2cc(-c3cc(OC)ccc3O)[nH]c(=O)c2C#N)cc1
60.2
NC(=S)c1csc(CCNC(=O)c2ccccc2)n1
100
Cc1nn(-c2ccccc2)c2c1C(c1ccc([N+](=O)[O-])cc1)C(C#N)=C(N)O2 (stereo unspecified)
106
COc1cc2oc(-c3cccc(C(=O)Nc4ccc(C#N)cc4)c3)cc(=O)c2c(O)c1OC
75
COc1ccc(/C=C2\C=C(c3ccccc3)N(CCc3ccccc3)C2=O)cc1OC
60.9
C=CC(=O)Nc1cccc(C)c1Nc1cc(-c2cccnc2Cc2c(C)c(OC)cc(OC)c2C)ncn1
42.3

Task: Indicate the recorded growth value for this molecule: CC(C)(C)CC(C)(C)Nc1c(-c2ccc(-c3ccccc3)cc2)nc2cnccn12
Result: 84.5

Task: Provide measured growth value, entry: CN(C)CCC(O)(Cc1ccccc1)c1ccccc1 (stereo unspecified)
Result: 108

Task: Kindly indicate its recorded growth. Item: CSc1ccc(Cl)c(C(=O)Nc2sccc2C(N)=O)c1
Result: 98.8

Task: Write down growth measured for item Cc1cnc(Nc2ccc(OCCN3CCCC3)cc2)nc1NCc1ccco1
Result: 74.6

Task: Determine its reported growth: COc1ccc(-c2nc3sc4c(c3c(=O)[nH]2)CCCC4)c2ccccc12
Result: 6.37

Task: Give growth for C=C(Cl)COC(=O)C(C)(C)O
Result: 102

Task: Specify measured growth for CNCCNc1nc2ccccc2c2c(=O)c3cc(F)ccc3oc12 .
Result: 49.1

Task: Look up and state reported growth for CCN(CC)CCOc1ccc(/C(=C(\C)c2ccc(OC)c(F)c2)c2ccc(Cl)cc2)cc1
Result: 7.79

====

- Test system: EKVX NSCLC
- protocol notes: NCI-60 one-dose screen, 48 h
- test context: 10 µM unless noted
The panel holds about 83,000 compounds, 20% with a hit somewhere; the sample as a whole holds those more often. The source made the active and inactive calls. Rule for the calls: active = growth percent below 10; inactive = the rest.
Classes to choose from: active, inactive

# count of solved cases: 2
CC(C)(O)c1cccc(F)c1
inactive
[2H]c1nc(Nc2ncc(F)c(-c3cc(F)c4nc(C)n(C(C)C)c4c3)n2)c([2H])c([2H])c1CN1CCN(C([2H])([2H])C([2H])([2H])[2H])CC1
inactive

Task: Could you please tell me the result logged for Cn1cc(-c2ccc3nc(-c4ccc(CC(=O)Nc5cc(C(C)(C)C)no5)cc4)cnc3c2)cn1 in this assay?
Result: inactive

Task: Could you please tell me the result logged for O[C@H]1CO[C@H]2[C@@H]1OC[C@@H]2Oc1ccc(Nc2ccnc(Nc3ccc(O[C@H]4CO[C@H]5[C@@H]4OC[C@@H]5O)c(Cl)c3)n2)cc1Cl in this assay?
Result: inactive

Task: Call for entry CN=C1C=CC(=C(c2ccc(N(C)C)cc2)c2ccc(N(C)C)cc2)C=C1 :
Result: active

Task: Recorded test outcome, item CCCc1cc(=O)oc2c3c(c4c(c12)OC(C)(C)C=C4)O[C@@H](C)[C@H](C)C3=O
Result: inactive

Task: Outcome logged for COc1ccc(/C(C)=C(\c2ccc(Cl)cc2)c2ccc(OCCN3CCCC3)cc2)cc1F in this assay:
Result: inactive

Task: State the result this test recorded for COc1ccc(-c2nnc(-c3ccc4c(c3)nc(-c3ccccc3)n4C3CCCCC3)o2)cc1 .
Result: inactive

Task: Hi team, can someone confirm the assay call for C=C1C(=O)O[C@H]2[C@H]1CC/C(COC(=O)/C=C\C(=O)NCc1ccc(Cn3c(=O)sn(CCCC)c3=O)cc1)=C\CC[C@@]1(C)O[C@@H]21 ?
Result: active

Task: Hi, do you know how CCN(CC)CCOc1ccc(/C(=C(\C)c2ccc(OC)c(F)c2)c2ccc(Cl)cc2)cc1 came out in this test?
Result: inactive

Task: Outcome? COc1cccc(CCC2CCCN(c3cc(C)nc(N)n3)C2)c1 (configuration not stated)
Result: inactive

Task: // return assay outcome for COc1ccc(N(C)c2nc(Cl)nc3cnn(C)c23)cc1
Result: inactive

Task: Per the records of this test, what outcome belongs to N[C@H]1CCC[C@@H]1NCCCCN1C(=O)c2cccc3cccc(c23)C1=O ?
Result: inactive

Task: // param item: O=C(/C=C/C12c3ccccc3C(c3ccccc31)C1C(=O)N(c3ccccc3)C(=O)C12)c1ccccc1 (configuration not stated) ; yields the recorded call
Result: active

Task: Call for entry C[C@@H]1CC[C@@H]2[C@@H]1[C@H](OC(=O)/C=C/c1ccccc1)[C@]1(C3CCCCC3)C[C@@H](NC(=O)CO)[C@@]2(C)O1 :
Result: inactive

Task: Called result for O=C1N/C(=N/O)S/C1=C/c1cn(-c2ccccc2)nc1-c1ccccc1
Result: inactive

Task: Could you check what this test reported for C=C1c2c(C)nn(-c3ccc(NC(C)=O)cc3)c2N(C)C23CC1C1(C)c4c(C)nn(-c5ccc(NC(C)=O)cc5)c4N(C)C(C)(CC12)C3 (configuration not stated) ?
Result: inactive

====

- System: TK-10 renal
- protocol notes: NCI-60 one-dose screen, 48 h (100 = growth as untreated, 0 = no growth, -100 = all killed)
- test context: 10 µM unless noted
Compounds without any hit were thinned out: in the full panel of roughly 83,000, 20% have a hit.
Rule: met for growth not less than 70%, not met for anything less.

Task: Dear colleague, could you confirm whether O=C1C(Cl)C(c2ccccc2Cl)N1n1cnnc1 (centres undefined) has growth at or above 70%?
Result: met

Task: Could you verify whether the entry CN(C)c1ccc2cc(-c3ccc(Cl)c(Cl)c3)c(N)nc2c1 shows growth of no less than 70%?
Result: not met

Task: Given the entry CN(C)c1ccc(-c2cc(-c3ccc(Nc4nc(Nc5ccccc5)nc(Nc5ccc(Cl)cc5)n4)cc3)nc(N)n2)cc1 , answer whether its growth meets or surpasses 70%.
Result: met

Task: Quick check: does Cc1nn(-c2ccccc2)c2c1C(c1ccc([N+](=O)[O-])cc1)C(C#N)=C(N)O2 (centres undefined) have growth greater than or equal to 70%?
Result: met

Task: Does the reported growth for COc1ccc(OC)c(C(=O)Nc2cccc(-c3cc(=O)c4ccccc4o3)c2)c1 fall at or above the 70% mark?
Result: met

Task: Confirm if growth reported for the compound COc1ccc(C2CC(c3ccc4ccccc4c3)=NN2c2nc(O)c(C3=c4cc(Cl)ccc4=NC3=O)s2)cc1 (centres undefined) is 70% or above.
Result: not met

Task: Hi team, for C=C1C(=O)O[C@H]2[C@H]1CC/C(C(=O)NCCCCCCCCNC(=O)/C1=C/CC[C@@]3(C)O[C@H]3[C@H]3OC(=O)C(=C)[C@@H]3CC1)=C\CC[C@@]1(C)O[C@@H]21 , is the recorded growth at or above 70%?
Result: not met

Task: Please tell me: is the compound NC(N)=N/N=C/CO at or over 70% in terms of growth?
Result: met

====

- System: CCRF-CEM leukemia
- protocol notes: NCI-60 one-dose screen, 48 h (100 = growth as untreated, 0 = no growth, -100 = all killed)
- test context: 10 µM unless noted
About 83,000 compounds went through this panel and 20% of them were active in at least one assay; those are over-represented in the sample as a whole.
experimental readout: growth (%)
Report the figure in % without appending any unit label.

The cases that follow already have their growth on record.
COc1ccc(/C=C2\C=C(c3ccccc3)N(CCc3ccccc3)C2=O)cc1OC
57.6
CN1CCN(C(=O)[C@@]2(C)CC[C@]3(C)CC[C@]4(C)C(=CC[C@@H]5[C@@]6(C)C/C(=C/c7ccncc7)C(=O)C(C)(C)[C@@H]6CC[C@]54C)[C@@H]3C2)CC1
6.69

Task: Consider the compound N=C(N)c1ccc(-c2ccc(-c3ccc(Cl)cc3Cl)o2)nc1 . State its measured growth.
Result: -12.9

Task: State, in one line, measured growth of O=C1CSC(c2ccc(O)cc2)N1c1nnc(Cn2cnnc2)o1 (stereo not drawn)
Result: 49.1

Task: Give recorded growth. Cc1cccc(-c2cc(O)c(C(=O)N3CCOCC3)s2)c1
Result: 35.5

Task: For the compound C=C1C(=O)O[C@H]2[C@H]1CC/C(COC(=O)/C=C\C(=O)NCc1ccc(Cn3c(=O)sn(CCCC)c3=O)cc1)=C\CC[C@@]1(C)O[C@@H]21 , report growth.
Result: -26.1

Task: # return recorded growth for entry N=C(N)c1ccc(-c2ccc(/C=C/c3ccccc3)s2)cc1
Result: 1.58

Task: For the compound C=C1c2c(C)nn(-c3ccc(N)cc3)c2N(C)C23CC1C1(C)c4c(C)nn(-c5ccc(N)cc5)c4N(C)C(C)(CC12)C3 (stereo not drawn) , give its measured growth value.
Result: 47.8
